B1: library; numbered along this chain (parent)
chain: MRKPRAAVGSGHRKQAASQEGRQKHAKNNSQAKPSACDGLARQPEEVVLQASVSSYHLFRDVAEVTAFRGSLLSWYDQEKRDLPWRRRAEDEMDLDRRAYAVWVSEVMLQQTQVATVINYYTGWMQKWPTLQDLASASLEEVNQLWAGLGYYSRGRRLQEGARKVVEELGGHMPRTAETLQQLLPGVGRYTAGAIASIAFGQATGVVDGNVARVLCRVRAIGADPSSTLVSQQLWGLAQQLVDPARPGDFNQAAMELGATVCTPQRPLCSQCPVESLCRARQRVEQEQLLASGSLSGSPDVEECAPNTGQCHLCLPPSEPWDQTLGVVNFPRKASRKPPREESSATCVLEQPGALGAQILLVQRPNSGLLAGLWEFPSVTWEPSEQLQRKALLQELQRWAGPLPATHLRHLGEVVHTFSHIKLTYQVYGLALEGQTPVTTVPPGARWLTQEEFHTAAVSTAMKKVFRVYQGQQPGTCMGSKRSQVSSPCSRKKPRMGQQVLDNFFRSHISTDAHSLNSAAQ

Variants of: B1
procedure.text: 8OG:A repair function score (normalized; synonymous = 0, nonsense = -1) (normalized log-likelihood score); higher = more repair activity (WT-like);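 further: cells sorted at 72 h after reporter transfection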
stated.conditions: with 8OG:A DNA repair reporter (GFP) in HEK-293 MUTYH KO cells
Classes are defined on 8OG:A repair function score with ranges class 0 = under -0.2, class 1 = from -0.2 up to -0.1, class 2 = -0.1 and over

# mutant.id, class.assignment
rows = [
    ("V284H", "class 1"),
    ("G356W", "class 2"),
    ("E319A", "class 2"),
    ("G155C", "class 1"),
    ("P174Y", "class 0"),
]

Which category fits this record: `R409I`
class 1

Which category fits this record: `K127W`
class 0

Which category fits this record: `H416Y`
class 0

Which category fits this record: `E79G`
class 2

Which category fits this record: `A6D`
class 1

Which category fits this record: `L180D`
class 0

Which category fits this record: `S490C`
class 2
